Each entry below lists one item and its recorded inhibition value.
Test: inhibitors of TNFa-induced NFkB p65 translocation, primary screen, imaging, HUVEC, MLSMR starter and 10KST1 sets (AID 438);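 further: compound added about 3h40 before a 20 min TNFalpha stimulation; signal is the nuclear over cytoplasmic p65 intensity ratio per well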
Conditions: HUVEC TNFa-induced p65 nuclear translocation; at 2 µM, stronger effect = higher value, 0% TNFa-plus-vehicle, 100% no-TNFa wells
Write the answer as a number in %, unit excluded.

Challenge: Report inhibition, nothing else, for this molecule: CCOC(=O)C1CCCN(C(=O)c2cn(C)c(=O)c3cc(OC)c(OC)cc23)C1 (stereo not drawn)
Response given: -16.1

Challenge: Report inhibition, nothing else, for this molecule: Cc1ccc(C(=O)CC2(O)C(=O)N(CN3CCOCC3)c3ccccc32)cc1 (stereo not drawn)
Response given: -8.1

Challenge: Report inhibition, nothing else, for this molecule: "Cc1nnc(NCCc2ccccc2)n(N)c1=O"
Response given: -5.5

###

Molecular target: Voltage-gated potassium channel subunit beta-2 (Rattus norvegicus)
Test: inhibitors of rat Kvbeta2 reductase activity – biochemical, NADPH fluorescence, primary screen (AID 622);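 further: slope of raw intensity against log time taken from 70 to 1610 s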
Details: recombinant KvBeta, 4-cyanobenzaldehyde reduction, at 10 µM, stronger effect = higher value
Quick rule for you: fluorescence slope at -0.5 or higher means yes (1), lower means no (0).

As a guide, the following entries are already answered.
compound: CCN(CC)CCOc1cccc(C(C)C)c1
target: Voltage-gated potassium channel subunit beta-2 (Rattus norvegicus)
assigned category: yes (1)
//
compound: Cc1ccc(CNC(=O)COC(=O)c2c(C)noc2C)cc1
target: Voltage-gated potassium channel subunit beta-2 (Rattus norvegicus)
assigned category: yes (1)
//
compound: CN(C)C(=O)Cn1c(SCC(=O)NC2CCCCC2)nc2ccccc21
target: Voltage-gated potassium channel subunit beta-2 (Rattus norvegicus)
assigned category: yes (1)

Now look at this entry.
Challenge: Kindly determine if fluorescence slope recorded for "COc1ccc2[nH]c(=O)c(CNC3CCCCC3)cc2c1" is above or exactly -0.5.
Response given: yes (1)

###

Assay: reduction of polyQ htt aggregates in cells – imaging, exon1htt(103Q)mCFP cells, high-content imaging, primary screen (AID 483);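 further: compound exposure lasted 3 days before fixation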;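 on nuclei count: percent of the per-plate median nuclei count of sample wells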
Settings: exon1htt(103Q)mCFP cell line, aggregate imaging, at 2 µM; measured here: cell count, toxicity
metric: nuclei count

Below, each entry is followed by its recorded nuclei count result.
compound: COc1ccc(CCn2c(NCCCN3CCOCC3)nc3c2c(=O)[nH]c(=O)n3C)cc1
nuclei count: 110%

compound: CCOc1ccccc1OCC(=O)NCc1ccco1
nuclei count: 101%

compound: O=C(Nc1ccc2c(c1)OCO2)OCc1ccccc1
nuclei count: 101%

compound: Cc1ccc2c(c1C)NC(=O)C2(O)CC(=O)c1ccc2c(c1)OCO2 (stereo unspecified)
nuclei count: 96.2%

compound: CC(=O)N(CCN(C(C)=O)c1ccccc1)c1ccccc1
nuclei count: 80.2%

compound: CCC(Sc1ncccc1C(=O)O)C(=O)N1CCCC1 (stereo unspecified)
nuclei count: 93.4%

Challenge: Report nuclei count, nothing else, for this compound: "COc1ccc(CCNc2oc(COc3ccccc3Cl)nc2C#N)cc1OC"
Response given: 99.9%

Challenge: Report nuclei count, nothing else, for this compound: "CCCCNC(=O)CSc1nc2ccc(N3CCOCC3)cc2c(=O)n1CCc1ccccc1"
Response given: 48.9%

Challenge: Report nuclei count, nothing else, for this compound: "CCCCn1c(NCc2ccccc2O)nc2ccccc21"
Response given: 107%

###

Molecular target: Alpha-2C adrenergic receptor (Homo sapiens)
Assay: compounds altering alpha2C-coupled GIRK flux – cell-based, HEK293 alpha2C/GIRK1/2, thallium flux, primary screen (AID 624);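 further: slope of fluorescence ratio to pre-addition baseline per second over 15 to 24 s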
Details: thallium flux BTC fluorescence, at 10 µM, actives lie on both sides
Active and inactive are the calls of the source.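 The calls were made as follows: active = fluorescence slope after compound addition differing from the mean of all screened samples at 99.7% confidence, in either direction; inactive = the rest.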
metric: slope

Below, each entry is followed by its recorded slope result.
compound: O=C(C1CCCN(S(=O)(=O)c2cccnc2)C1)N1CCn2c1nc1ccccc12 (stereo not drawn)
target: Alpha-2C adrenergic receptor (Homo sapiens)
slope: 0.00573 (inactive)
--
compound: COCCN(C(=O)c1csnn1)C(C(=O)NC1CCCCC1)c1cccs1 (stereo not drawn)
target: Alpha-2C adrenergic receptor (Homo sapiens)
slope: 0.00648 (inactive)
--
compound: COc1ccc(CCNC(=O)C2CCN(C(=O)N(C)C)CC2)cc1OC
target: Alpha-2C adrenergic receptor (Homo sapiens)
slope: 0.00486 (inactive)
--
compound: COCCOC(=O)c1c(C)oc2ccc(NS(=O)(=O)c3ccc(F)cc3)cc12
target: Alpha-2C adrenergic receptor (Homo sapiens)
slope: 0.00626 (inactive)
--
compound: COc1cccc(-c2cc(C(F)(F)F)nc(NCc3ccco3)n2)c1
target: Alpha-2C adrenergic receptor (Homo sapiens)
slope: 0.00562 (inactive)
--
compound: CC1CN(C(=O)CSc2nnc(-c3ccncc3)n2-c2ccccc2)CC(C)O1 (stereo not drawn)
target: Alpha-2C adrenergic receptor (Homo sapiens)
slope: 0.00638 (inactive)

Challenge: Report slope, nothing else, for this compound: "O=C(Nc1nc2c(s1)CCc1ccccc1-2)c1cccs1"
Response given: 0.00613 (inactive)

Challenge: Report slope, nothing else, for this compound: C=CCn1c(SCC(=O)c2cc(C)n(C(C)COC)c2C)nc2sc(C)c(C)c2c1=O (stereo not drawn)
Response given: 0.00515 (inactive)

Challenge: Report slope, nothing else, for this compound: "COC(=O)c1c(-c2cccs2)csc1NC(=O)CN1CCOCC1"
Response given: 0.00516 (inactive)

Challenge: Report slope, nothing else, for this compound: "COc1cc2c(cc1OC)CN(C(=O)COc1ccc(C)c(C)c1)CC2"
Response given: 0.00534 (inactive)

Challenge: Report slope, nothing else, for this compound: "COc1cccc(S(=O)(=O)Nc2ccc(C(=O)N3CCN(C(=O)c4ccco4)CC3)cc2)c1"
Response given: 0.00603 (inactive)

Challenge: Report slope, nothing else, for this compound: "COC(=O)c1ccsc1NC(=O)CN1C(=O)CCC1=O"
Response given: 0.0049 (inactive)

Challenge: Report slope, nothing else, for this compound: "Cc1ccc2[nH]c(=O)c(-c3noc(-c4ccncc4)n3)cc2c1"
Response given: 0.0054 (inactive)

Challenge: Report slope, nothing else, for this compound: "CC(C)(C)Cc1nc(-c2ccccn2)no1"
Response given: 0.00439 (inactive)

Challenge: Report slope, nothing else, for this compound: "Cc1cccc(Cc2c(C)nc3nc(SCC(=O)NCc4ccco4)nn3c2C)c1"
Response given: 0.00687 (inactive)

Challenge: Report slope, nothing else, for this compound: "COC(=O)C1CCN(C(=O)c2sc3nc(-c4ccc(F)cc4)cn3c2C)CC1"
Response given: 0.00421 (inactive)

Challenge: Report slope, nothing else, for this compound: "Cn1c(=O)[nH]c(=O)c2c1ncn2CCN1CCOCC1"
Response given: 0.00632 (inactive)

Challenge: Report slope, nothing else, for this compound: "COc1ccc(NC(=O)N(C2CCCCC2)C2CCN(C(C)C)CC2)c(OC)c1"
Response given: 0.0051 (inactive)

Challenge: Report slope, nothing else, for this compound: "COC(C)(C)c1cc(C(C)(C)C)nc(N)n1"
Response given: 0.00615 (inactive)

Challenge: Report slope, nothing else, for this compound: "O=C(c1ccc(COc2c(F)c(F)c(F)c(F)c2F)o1)N1CCOCC1"
Response given: 0.0055 (inactive)

Challenge: Report slope, nothing else, for this compound: "O=C1c2ccccc2C(=O)N1C/C=C/c1ccccc1"
Response given: 0.0051 (inactive)

Challenge: Report slope, nothing else, for this compound: "S=c1[nH]nc(Cc2ccccc2)n1Cc1ccco1"
Response given: 0.00544 (inactive)

Challenge: Report slope, nothing else, for this compound: "O=C(Nc1ccc2snnc2c1)N1CCSCC1"
Response given: 0.00608 (inactive)

###

Test: reduction of polyQ htt aggregates in cells – imaging, exon1htt(103Q)mCFP cells, high-content imaging, primary screen (AID 483);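 further: compound exposure lasted 3 days before fixation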
Conditions: exon1htt(103Q)mCFP cell line, aggregate imaging, at 2 µM; stronger effect = higher value
Each entry below lists one item and its recorded inhibition of aggregation value.
Write the answer as a number in %, unit excluded.

molecule: COc1ccc(C(=O)c2ccccc2)c(O)c1
inhibition of aggregation [%]: 6.6
--
molecule: CCCn1nc(NC(=O)c2cccs2)c2cc3cc(OC)ccc3nc21
inhibition of aggregation [%]: -8

Challenge: Report inhibition of aggregation, nothing else, for this molecule: "Cn1c(=O)[nH]c(=O)c2c1ncn2CCN1CCOCC1"
Response given: -10.8

Challenge: Report inhibition of aggregation, nothing else, for this molecule: "COc1ccccc1NC(=O)N1CCN(c2ccccc2F)CC1"
Response given: -10.6

Challenge: Report inhibition of aggregation, nothing else, for this molecule: "Cc1cc(C(=O)N2CCN(c3ncccn3)CC2)cs1"
Response given: 4.3

Challenge: Report inhibition of aggregation, nothing else, for this molecule: COC(=O)CN1C(=O)CC(C)(C)S(=O)c2ccccc21 (stereo unspecified)
Response given: 13.9

###

Target: Voltage-gated potassium channel subunit beta-2 (Rattus norvegicus)
Assay: inhibitors of rat Kvbeta2 reductase activity – biochemical, NADPH fluorescence, primary screen (AID 622);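 further: slope of raw intensity against log time taken from 70 to 1610 s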
Conditions: recombinant KvBeta, 4-cyanobenzaldehyde reduction, at 10 µM, stronger effect = higher value
Quick rule for you: fluorescence slope at -0.5 or higher means satisfied, lower means not satisfied.

As a guide, the following entries are already answered.
molecule: Cc1cc(C(=O)OCC(=O)N2c3ccccc3CC2C)c(C)o1 (stereo unspecified)
assigned category: satisfied
--
molecule: Cc1ccc(CN2C(=O)CCC2C(=O)NCCCN2CCC(C)CC2)cc1 (stereo unspecified)
assigned category: not satisfied
--
molecule: CCCOC(=O)c1[nH]c2c(c1C)C(=O)CC(c1cc(OC)c(OC)c(OC)c1)C2 (stereo unspecified)
assigned category: not satisfied

Challenge: Kindly determine if fluorescence slope recorded for "O=C(CN1C(=O)c2ccccc2C1=O)Nc1ccccc1C(=O)N1CCCC1" is above or exactly -0.5.
Response given: not satisfied

Challenge: Kindly determine if fluorescence slope recorded for "CCOC(=O)CSc1nc2cccnc2n1-c1ccc(F)cc1" is above or exactly -0.5.
Response given: satisfied

Challenge: Kindly determine if fluorescence slope recorded for "CCOC(=O)Cn1c2c(c(=N)c3ccccc31)CCC2" is above or exactly -0.5.
Response given: not satisfied

Challenge: Kindly determine if fluorescence slope recorded for "CCOc1ccccc1OCCCCN1CCCC1" is above or exactly -0.5.
Response given: satisfied

Challenge: Kindly determine if fluorescence slope recorded for "Cc1cccc(NC(=O)Cn2c(=O)n(C)c3ccccc32)c1" is above or exactly -0.5.
Response given: satisfied

Challenge: Kindly determine if fluorescence slope recorded for COc1ccccc1NC(=O)CSC1CC(=O)N(c2ccc3c(c2)OCO3)C1=O (stereo unspecified) is above or exactly -0.5.
Response given: not satisfied

Challenge: Kindly determine if fluorescence slope recorded for CCOC(=O)CN1CC23C=CC(O2)C(C(=O)NC2CCCC2)C3C1=O (stereo unspecified) is above or exactly -0.5.
Response given: not satisfied

Challenge: Kindly determine if fluorescence slope recorded for "Clc1cccc(Nc2c3c(nc4ncnn24)CCC3)c1" is above or exactly -0.5.
Response given: not satisfied

Challenge: Kindly determine if fluorescence slope recorded for "Cc1ccc(NC(=O)c2cc(-c3ccc(C)o3)nc3ccccc23)nc1" is above or exactly -0.5.
Response given: satisfied

Challenge: Kindly determine if fluorescence slope recorded for "CCn1nnc(NC(=O)c2ccccc2Br)n1" is above or exactly -0.5.
Response given: satisfied

Challenge: Kindly determine if fluorescence slope recorded for COC(=O)c1ccc(NC(=O)C2CC(=O)N(c3cc(C)ccc3C)C2)cc1 (stereo unspecified) is above or exactly -0.5.
Response given: not satisfied

Challenge: Kindly determine if fluorescence slope recorded for "N#Cc1cc2ccc(N3CCOCC3)cc2cc1C#N" is above or exactly -0.5.
Response given: satisfied

# credit: PubChem BioAssay
